- system: CA-IX-His-ECD (his-V5 tagged version of the CA IX protein, extracellular domain) (human, UniProt Q16790 38-414)
- assay: ELISA on CA-IX-His-ECD
I'd appreciate it if you could supply OD values for the items below.
Reply numerically in OD, unit not repeated.

# get_value(readout='OD', item= AB-MN-XG1-023 (antibody, human IgG1, V domains shown, also called MN23; AB-MN-XG1-23) VH: QVQLQESGPGLVKPSQTLSLTCTVSGGSISSGGYYWSWIRQHPGKGLEWIGYIYYSGSTYYNPSLKSRVTISVDTSKNQFSLKLSSVTAADTAVYYCARENYDILTGFNWFDPWGQGTLVTVSS VL: DIQMTQSPSSVSASVGDRVTITCRASQGISSWLAWYQQKPGKAPKVLIYSTSRLQSGVPSRFSGSGSGTDFTLTISSLQPEDFATYYCQQADSFRTFGQGTKVEIK )
2.22

Also check AB-MN-22.25 (antibody, human IgG2, V domains shown, also called AX014H22-25) VH: QLQLQESGPGLVKPSETLSLTCTVSDGSISSSSYYWGWIRQPPGKGLEWIGSIYYSGSTYYNPSLKSRVTISVDTSKNQFSLKLSSVTAADTAVYYCARHGSFFDYWGQGTLVTVSS VL: DIQMTQSPSSLSASVGDRVTITCRASQGIRNDLGWYQQKPGKAPKRLIYAASSLQSGVPSRFSGSGSGTEFTLTISSLQPEDFTTYYCLQYKSYPWTFGQGTKVEIK
1.84

Also check AB-MN-22.29 (antibody, human IgG2, V domains shown, also called AX014H22-29) VH: QVQLQESGPGLVKPSETLSLTCTVSGGSISSYYWSWIRQPAGKGLEWIGRIYTSGSTNYNPSLKSRVTMSVDTSKNQFSLKLSSVTAADTAVYYCARDGQWLEDYGMDVWGQGTTVTVSS VL: DIQMTQSPSSVSASVGDRVTITCRASQGISSWLAWFQQKPGKAPKLLIYAASSLQSGVPSRFSGSGSGTDFTLTISSLQPEDFATYYCQQANSFPITFGQGTRLEIK
1.96
